biological target: UniProt:P22303; type: functional
Sequence (P22303 whole entry): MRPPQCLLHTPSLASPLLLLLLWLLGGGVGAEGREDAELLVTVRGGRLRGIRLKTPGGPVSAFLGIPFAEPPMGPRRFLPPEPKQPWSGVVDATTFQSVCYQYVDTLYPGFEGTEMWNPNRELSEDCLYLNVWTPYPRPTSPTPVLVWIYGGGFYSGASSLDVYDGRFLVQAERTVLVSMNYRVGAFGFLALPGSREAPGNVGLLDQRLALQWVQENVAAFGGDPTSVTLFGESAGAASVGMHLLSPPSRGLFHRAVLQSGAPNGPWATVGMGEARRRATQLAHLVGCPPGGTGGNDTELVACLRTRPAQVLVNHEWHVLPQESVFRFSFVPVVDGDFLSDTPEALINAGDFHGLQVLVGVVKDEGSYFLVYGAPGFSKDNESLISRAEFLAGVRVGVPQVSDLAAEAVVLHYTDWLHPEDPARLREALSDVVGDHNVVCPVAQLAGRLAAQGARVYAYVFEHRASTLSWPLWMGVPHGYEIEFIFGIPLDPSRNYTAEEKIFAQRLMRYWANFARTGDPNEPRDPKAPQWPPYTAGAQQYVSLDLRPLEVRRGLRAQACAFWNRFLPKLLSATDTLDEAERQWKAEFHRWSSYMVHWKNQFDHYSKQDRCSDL
observable: AC50

Looking up "CC(C)NNC(=O)c1ccncc1" , I found its AC50 recorded as > 30 µM

Looking up "COC(=O)[C@@H]1CC2=CC(=O)CC[C@]2(C)[C@@]23O[C@@H]2C[C@@]2(C)[C@@H](CC[C@@]24CCC(=O)O4)[C@H]13" , I found its AC50 recorded as > 30 µM

Looking up "CC(C)Cc1ccc(CC(=O)O)cc1" , I found its AC50 recorded as > 30 µM

Looking up "CO/N=C(\C(=O)N[C@@H]1C(=O)N2C(C(=O)[O-])=C(C[N+]3(C)CCCC3)CS[C@H]12)c1csc(N)n1" , I found its AC50 recorded as > 300 µM

---

For each of the compounds below, state its AC50.

Value sought: AC50, system Cannabinoid receptor 1 (Homo sapiens), item "C[C@@H]1O[C@@H]1P(=O)(O)O" . Result: > 10 µM

Value sought: AC50, system Cannabinoid receptor 1 (Homo sapiens), item "CC[C@H](C)C(=O)O[C@H]1C[C@H](O)C=C2C=C[C@H](C)[C@H](CC[C@@H](O)C[C@@H](O)CC(=O)O)[C@H]21" . Result: > 10 µM

Value sought: AC50, system Cannabinoid receptor 1 (Homo sapiens), item "COc1ccc2cccc(CCNC(C)=O)c2c1" . Result: > 10 µM

Value sought: AC50, system Cannabinoid receptor 1 (Homo sapiens), item "C#CCN(C)[C@H](C)Cc1ccccc1" . Result: > 10 µM

Value sought: AC50, system Cannabinoid receptor 1 (Homo sapiens), item "CN1CCc2cccc3c2[C@H]1Cc1ccc(O)c(O)c1-3" . Result: > 10 µM

Value sought: AC50, system Cannabinoid receptor 1 (Homo sapiens), item "COC(=O)N[C@H](C(=O)N1CCC[C@H]1c1nc(-c2ccc(-c3ccc(-c4c[nH]c([C@@H]5CCCN5C(=O)[C@@H](NC(=O)OC)C(C)C)n4)cc3)cc2)c[nH]1)C(C)C" . Result: > 30 µM

Value sought: AC50, system Cannabinoid receptor 1 (Homo sapiens), item "O=C(O)CCCc1ccccc1" . Result: > 30 µM

Value sought: AC50, system Cannabinoid receptor 1 (Homo sapiens), item "CN(CCCN1c2ccccc2CCc2ccccc21)CC(=O)c1ccc(Cl)cc1" . Result: 6.9 µM

Value sought: AC50, system Cannabinoid receptor 1 (Homo sapiens), item CC(=O)OCC(=O)[C@@]12OC3(CCCC3)O[C@@H]1C[C@H]1[C@@H]3CCC4=CC(=O)C=C[C@]4(C)[C@@]3(F)[C@@H](O)C[C@@]12C [AMCINONIDE] . Result: 4.25 µM

Value sought: AC50, system Cannabinoid receptor 1 (Homo sapiens), item "NC(N)=Nc1nc(CSCCC(N)=NS(N)(=O)=O)cs1" . Result: > 10 µM

Value sought: AC50, system Cannabinoid receptor 1 (Homo sapiens), item CCN1CCC[C@H]1CNC(=O)c1cc(S(N)(=O)=O)ccc1OC [LEVOSULPIRIDE] . Result: > 10 µM

Value sought: AC50, system Cannabinoid receptor 1 (Homo sapiens), item "C[N+](C)(C)CCOC(N)=O" . Result: > 10 µM

Value sought: AC50, system Cannabinoid receptor 1 (Homo sapiens), item "O=C(O)c1cc(-c2ccc(F)cc2F)ccc1O" . Result: > 10 µM

Value sought: AC50, system Cannabinoid receptor 1 (Homo sapiens), item NS(=O)(=O)c1cc(Cl)c(Cl)c(S(N)(=O)=O)c1 [DICHLORPHENAMIDE] . Result: > 10 µM

Value sought: AC50, system Cannabinoid receptor 1 (Homo sapiens), item COC(=O)C1=C(C)NC(C)=C(C(=O)OC(C)C)C1c1cccc2nonc12 (centres undefined) . Result: > 10 µM

Value sought: AC50, system Cannabinoid receptor 1 (Homo sapiens), item CN1C(=O)CC(C)(c2ccccc2)C1=O (centres undefined) [METHSUXIMIDE] . Result: > 10 µM

Value sought: AC50, system Cannabinoid receptor 1 (Homo sapiens), item "Nc1nc(N)c2nc(-c3ccccc3)c(N)nc2n1" . Result: > 30 µM

Value sought: AC50, system Cannabinoid receptor 1 (Homo sapiens), item "C#CCN[C@@H]1CCc2ccccc21" . Result: > 30 µM

Value sought: AC50, system Cannabinoid receptor 1 (Homo sapiens), item "NC[C@H]1CC[C@H](C(=O)O)CC1" . Result: > 10 µM

---

Vasopressin V2 receptor (Homo sapiens) AC50 data; further: assay procedure not described here
Sequence (P30518 whole entry): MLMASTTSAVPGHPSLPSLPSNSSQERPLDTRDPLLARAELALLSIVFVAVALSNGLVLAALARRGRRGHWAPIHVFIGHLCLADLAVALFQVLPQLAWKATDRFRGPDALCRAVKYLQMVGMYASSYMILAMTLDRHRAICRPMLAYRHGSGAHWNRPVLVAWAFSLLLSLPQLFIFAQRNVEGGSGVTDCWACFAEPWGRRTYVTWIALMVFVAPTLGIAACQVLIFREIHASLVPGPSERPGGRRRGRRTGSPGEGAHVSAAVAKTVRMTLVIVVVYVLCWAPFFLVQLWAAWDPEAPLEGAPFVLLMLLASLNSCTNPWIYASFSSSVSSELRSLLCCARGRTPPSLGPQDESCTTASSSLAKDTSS

Looking up CN1CCN(C(=O)OC2c3nccnc3C(=O)N2c2ccc(Cl)cn2)CC1 (stereo not drawn) [ZOPICLONE] , I found its AC50 recorded as > 30 µM

Looking up NC[C@H]1O[C@H](O[C@H]2[C@H](O)[C@@H](O[C@H]3O[C@H](CO)[C@@H](O)[C@H](N)[C@H]3O)[C@H](N)C[C@@H]2N)[C@H](O)[C@@H](O)[C@@H]1O [KANAMYCIN] , I found its AC50 recorded as > 10 µM

Looking up NC[C@H]1CC[C@H](C(=O)O)CC1 [TRANEXAMIC ACID] , I found its AC50 recorded as > 10 µM

Looking up CN(C)[C@@H]1C(O)=C(C(N)=O)C(=O)[C@@]2(O)C(O)=C3C(=O)c4c(O)ccc(Cl)c4[C@@H](O)[C@H]3C[C@@H]12 [DEMECLOCYCLINE] , I found its AC50 recorded as > 10 µM

Looking up CCC(C(=O)O)c1ccc(CC(C)C)cc1 (stereo not drawn) [BUTIBUFEN] , I found its AC50 recorded as > 30 µM

Looking up O=C(O)c1cc(-c2ccc(F)cc2F)ccc1O [DIFLUNISAL] , I found its AC50 recorded as > 10 µM

Looking up COc1ccc2cccc(CCNC(C)=O)c2c1 [AGOMELATINE] , I found its AC50 recorded as > 30 µM

Looking up Cc1c(C(=O)Nc2ccc(N3C[C@@H](C)O[C@@H](C)C3)nc2)cccc1-c1ccc(OC(F)(F)F)cc1 [SONIDEGIB] , I found its AC50 recorded as > 30 µM

---

Equilibrative nucleoside transporter 1 (Homo sapiens, UniProt Q99808) AC50 data; further: assay procedure not described here
Sequence (Q99808 whole entry): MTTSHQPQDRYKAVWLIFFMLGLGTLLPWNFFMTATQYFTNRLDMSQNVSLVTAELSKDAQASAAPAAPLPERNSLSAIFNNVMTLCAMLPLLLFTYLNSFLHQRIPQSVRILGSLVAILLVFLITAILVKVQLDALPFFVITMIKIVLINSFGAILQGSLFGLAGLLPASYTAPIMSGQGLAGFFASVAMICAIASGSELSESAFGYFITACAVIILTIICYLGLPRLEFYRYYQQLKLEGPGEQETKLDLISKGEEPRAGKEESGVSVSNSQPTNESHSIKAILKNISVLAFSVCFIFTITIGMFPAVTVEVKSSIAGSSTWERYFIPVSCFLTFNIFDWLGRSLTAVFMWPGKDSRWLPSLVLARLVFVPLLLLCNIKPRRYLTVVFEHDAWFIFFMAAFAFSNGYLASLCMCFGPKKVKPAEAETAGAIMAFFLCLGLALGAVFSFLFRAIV

Looking up "CN[C@@H]1[C@H](O)[C@H](NC)[C@H]2O[C@@]3(O)C(=O)C[C@@H](C)O[C@H]3O[C@@H]2[C@H]1O" , I found its AC50 recorded as > 10 µM

Looking up "C#C[C@]1(O)CC[C@H]2[C@@H]3CCC4=CCCC[C@@H]4[C@H]3CC[C@@]21C" , I found its AC50 recorded as > 30 µM

Looking up COC(=O)C1=C(C)NC(C)=C(C(=O)OC(C)C)C1c1cccc2nonc12 (centres undefined) , I found its AC50 recorded as > 30 µM

Looking up "COC(=O)N[C@H](C(=O)N1CCC[C@H]1c1nc(-c2ccc(-c3ccc(-c4c[nH]c([C@@H]5CCCN5C(=O)[C@@H](NC(=O)OC)C(C)C)n4)cc3)cc2)c[nH]1)C(C)C" , I found its AC50 recorded as > 30 µM

---

biological target: 5-hydroxytryptamine receptor 2B (Homo sapiens); assay type: functional, cell-based; further: assay procedure not described here
Sequence (P41595 whole entry): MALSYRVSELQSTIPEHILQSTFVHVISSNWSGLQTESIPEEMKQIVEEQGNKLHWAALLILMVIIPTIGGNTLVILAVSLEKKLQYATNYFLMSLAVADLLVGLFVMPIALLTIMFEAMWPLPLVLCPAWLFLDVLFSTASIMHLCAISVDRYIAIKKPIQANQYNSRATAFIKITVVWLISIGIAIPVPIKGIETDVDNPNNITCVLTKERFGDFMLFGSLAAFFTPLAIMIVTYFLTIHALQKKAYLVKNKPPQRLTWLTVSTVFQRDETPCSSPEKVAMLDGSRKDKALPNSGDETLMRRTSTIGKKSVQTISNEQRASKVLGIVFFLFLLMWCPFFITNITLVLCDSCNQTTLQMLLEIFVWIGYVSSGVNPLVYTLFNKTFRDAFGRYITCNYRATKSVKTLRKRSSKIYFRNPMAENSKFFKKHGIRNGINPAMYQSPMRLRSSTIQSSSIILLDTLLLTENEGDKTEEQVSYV
observable: AC50

Looking up "O=C(O)c1cc(-c2ccc(F)cc2F)ccc1O" , I found its AC50 recorded as > 10 µM

Looking up CC(C(=O)O)c1ccc(C(=O)c2cccs2)cc1 (stereo not given) , I found its AC50 recorded as > 10 µM

Looking up CN1C(=O)CC(c2ccccc2)C1=O (stereo not given) [PHENSUXIMIDE] , I found its AC50 recorded as > 10 µM

Looking up "CCCC(=O)N1CCCN(c2nc(N)c3cc(OC)c(OC)cc3n2)CC1" , I found its AC50 recorded as > 30 µM

Looking up "CN(CCCN1c2ccccc2CCc2ccccc21)CC(=O)c1ccc(Cl)cc1" , I found its AC50 recorded as > 30 µM

---

target: D(1A) dopamine receptor (Homo sapiens, UniProt P21728); assay type: functional, cell-based; further: assay procedure not described here
Sequence (P21728 whole entry): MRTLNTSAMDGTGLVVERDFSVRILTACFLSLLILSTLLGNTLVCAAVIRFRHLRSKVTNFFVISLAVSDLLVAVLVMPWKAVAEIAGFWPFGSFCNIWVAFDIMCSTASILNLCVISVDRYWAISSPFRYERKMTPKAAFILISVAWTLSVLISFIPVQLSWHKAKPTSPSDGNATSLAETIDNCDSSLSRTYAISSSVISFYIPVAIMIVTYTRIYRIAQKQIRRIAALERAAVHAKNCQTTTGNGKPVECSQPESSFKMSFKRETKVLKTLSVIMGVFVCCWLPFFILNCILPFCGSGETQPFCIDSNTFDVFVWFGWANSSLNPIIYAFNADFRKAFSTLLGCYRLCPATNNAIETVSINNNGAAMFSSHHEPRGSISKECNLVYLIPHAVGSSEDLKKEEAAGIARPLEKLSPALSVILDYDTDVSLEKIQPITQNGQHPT
observable: AC50

Value sought: AC50, system D(1A) dopamine receptor (Homo sapiens, UniProt P21728), item O=C(CCCCC(=O)Nc1c(I)cc(I)c(C(=O)O)c1I)Nc1c(I)cc(I)c(C(=O)O)c1I [IODIPAMIDE] . Result: > 30 µM

Value sought: AC50, system D(1A) dopamine receptor (Homo sapiens, UniProt P21728), item "Cc1c(O)c(=O)ccn1C" . Result: > 30 µM

Value sought: AC50, system D(1A) dopamine receptor (Homo sapiens, UniProt P21728), item NC(CO)C(=O)NNCc1ccc(O)c(O)c1O (centres undefined) [BENSERAZIDE] . Result: > 10 µM

Value sought: AC50, system D(1A) dopamine receptor (Homo sapiens, UniProt P21728), item "O=P(O)(O)C(O)(Cc1cccnc1)P(=O)(O)O" . Result: > 30 µM

Value sought: AC50, system D(1A) dopamine receptor (Homo sapiens, UniProt P21728), item "CCCCCN(C)CCC(O)(P(=O)(O)O)P(=O)(O)O" . Result: > 30 µM

Value sought: AC50, system D(1A) dopamine receptor (Homo sapiens, UniProt P21728), item "CN1C(=O)CC(=O)N(c2ccccc2)c2cc(Cl)ccc21" . Result: > 10 µM

Value sought: AC50, system D(1A) dopamine receptor (Homo sapiens, UniProt P21728), item "CCCOc1ccc(C(=O)OCCN(CC)CC)cc1N" . Result: > 30 µM

Value sought: AC50, system D(1A) dopamine receptor (Homo sapiens, UniProt P21728), item CCc1ccc(CCOc2ccc(CC3SC(=O)NC3=O)cc2)nc1 (centres undefined) . Result: > 10 µM

Value sought: AC50, system D(1A) dopamine receptor (Homo sapiens, UniProt P21728), item "[H]/N=C(/N)c1ccc(NCc2nc3cc(C(=O)N(CCC(=O)O)c4ccccn4)ccc3n2C)cc1" . Result: > 30 µM
